Target: T1, human MET ECD (human, UniProt P08581 25-932)
T1 construct: range 1-932; recombinant ECD made by the applicants; the stated range begins at residue 1, so it includes the signal peptide of the entry; also called hMET; hMET ECD
T1 sequence (P08581 25-932 limits assumed, form in doubt): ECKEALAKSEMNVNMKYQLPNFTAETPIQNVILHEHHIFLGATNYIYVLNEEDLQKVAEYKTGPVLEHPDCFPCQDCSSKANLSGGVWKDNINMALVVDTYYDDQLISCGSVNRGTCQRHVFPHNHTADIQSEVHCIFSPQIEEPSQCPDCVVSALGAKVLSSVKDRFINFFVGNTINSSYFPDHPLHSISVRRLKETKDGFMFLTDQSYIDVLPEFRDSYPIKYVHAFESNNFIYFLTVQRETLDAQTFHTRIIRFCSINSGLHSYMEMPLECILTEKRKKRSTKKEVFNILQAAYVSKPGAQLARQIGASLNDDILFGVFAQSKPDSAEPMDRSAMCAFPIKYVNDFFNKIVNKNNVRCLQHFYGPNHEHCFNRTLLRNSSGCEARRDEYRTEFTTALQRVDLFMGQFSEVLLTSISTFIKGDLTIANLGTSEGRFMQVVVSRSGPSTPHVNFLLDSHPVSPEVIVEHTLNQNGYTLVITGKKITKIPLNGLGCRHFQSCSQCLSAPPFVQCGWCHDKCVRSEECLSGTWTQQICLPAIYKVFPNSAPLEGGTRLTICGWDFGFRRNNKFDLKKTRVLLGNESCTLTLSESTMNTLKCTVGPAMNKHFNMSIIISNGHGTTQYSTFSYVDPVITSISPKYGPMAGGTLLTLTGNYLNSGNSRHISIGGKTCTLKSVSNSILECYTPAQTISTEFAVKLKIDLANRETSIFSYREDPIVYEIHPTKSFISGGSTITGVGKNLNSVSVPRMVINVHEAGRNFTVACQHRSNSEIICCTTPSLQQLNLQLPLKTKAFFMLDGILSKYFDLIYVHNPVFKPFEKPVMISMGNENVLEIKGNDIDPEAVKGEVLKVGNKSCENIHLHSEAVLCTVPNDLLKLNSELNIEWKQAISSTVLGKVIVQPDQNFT
Experiment: ELISA, MET ECD in solid phase, mAb 0-50 nM
Parameter: % binding (EMAX) compared to WT MET (% WT MET ECD)

| Binder | Parameter | Measurement units | Value measured |
| --- | --- | --- | --- |
| 71C3 chimeric llama-human IgG1 mAb (antibody, V domains shown, llama VH on human IgG1 CH1-CH2-CH3, llama VL on human lambda CL) VH: QLQLVESGGGLVQPGGSLRLSCAASGFTFSSHAMSWVRQAPGKGLEWVSAINSGGGSTSYADSVKGRFTISRDNAKNTLYLQMNSLKPEDTAVYYCAKELRFDLARYTDYEAWDYWGQGTQVTVSS VL: SYELTQPSALSVTLGQTAKITCQGGSLGSSYAHWYQQKPGQAPVLVIYDDDSRPSGIPERFSGSSSGGTATLTISGAQAEDEGDYYCQSADSSGNAAVFGGGTHLTVL | % binding (EMAX) compared to WT MET | % WT MET ECD | 100 |
